# normalised response per entry
Test system: MDA-MB-453
ASSAY OVERVIEW: normalised response (% of control), CellTiter-Glo; higher = more viable cells (100 = DMSO, 0 = benzethonium chloride kill control)
CONDITION PARAMETERS: incubation time: 72 h
Field format: number, assumed %, no unit text.

Known normalised response results, listed for orientation:
[
  {
    "MOLECULE": "CCN1CCN(c2ccc(Nc3cc(N(C)C(=O)Nc4c(Cl)c(OC)cc(OC)c4Cl)ncn3)cc2)CC1 [NVP-BGJ398] (1 nM)",
    "ASSAYED TARGET": "MDA-MB-453",
    "U": "%",
    "REPORTED RESULT": 97.7
  },
  {
    "MOLECULE": "CO[C@H]1C[C@@H]2CC[C@@H](C)[C@@](O)(O2)C(=O)C(=O)N2CCCC[C@H]2C(=O)O[C@H]([C@H](C)C[C@@H]2CC[C@@H](OC(=O)C(C)(CO)CO)[C@H](OC)C2)CC(=O)[C@H](C)/C=C(\\C)[C@@H](O)[C@@H](OC)C(=O)[C@H](C)C[C@H](C)/C=C/C=C/C=C/1C [Temsirolimus] (10 nM)",
    "ASSAYED TARGET": "MDA-MB-453",
    "U": "%",
    "REPORTED RESULT": 53.5
  },
  {
    "MOLECULE": "Cc1c2oc3c(C)ccc(C(=O)N[C@@H]4C(=O)N[C@H](C(C)C)C(=O)N5CCC[C@H]5C(=O)N(C)CC(=O)N(C)[C@@H](C(C)C)C(=O)O[C@@H]4C)c3nc-2c(C(=O)N[C@@H]2C(=O)N[C@H](C(C)C)C(=O)N3CCC[C@H]3C(=O)N(C)CC(=O)N(C)[C@@H](C(C)C)C(=O)O[C@@H]2C)c(N)c1=O [Dactinomycin] (0.1 nM)",
    "ASSAYED TARGET": "MDA-MB-453",
    "U": "%",
    "REPORTED RESULT": 102
  },
  {
    "MOLECULE": "Cc1ccc(F)c(NC(=O)Nc2ccc(-c3cccc4[nH]nc(N)c34)cc2)c1 [Linifanib] (1 nM)",
    "ASSAYED TARGET": "MDA-MB-453",
    "U": "%",
    "REPORTED RESULT": 113
  },
  {
    "MOLECULE": "CS(=O)(=O)c1ccc(C(=O)Nc2ccc(Cl)c(-c3ccccn3)c2)c(Cl)c1 [Vismodegib] (10 nM)",
    "ASSAYED TARGET": "MDA-MB-453",
    "U": "%",
    "REPORTED RESULT": 89.4
  },
  {
    "MOLECULE": "COc1cc(Nc2ncc3c(n2)-c2ccc(Cl)cc2C(c2c(F)cccc2OC)=NC3)ccc1C(=O)O [Alisertib] (1 nM)",
    "ASSAYED TARGET": "MDA-MB-453",
    "U": "%",
    "REPORTED RESULT": 95.9
  },
  {
    "MOLECULE": "N#CC[C@H](C1CCCC1)n1cc(-c2ncnc3[nH]ccc23)cn1 [Ruxolitinib] (10 nM)",
    "ASSAYED TARGET": "MDA-MB-453",
    "U": "%",
    "REPORTED RESULT": 83.8
  },
  {
    "MOLECULE": "Nc1nc(Cl)nc2c1ncn2[C@H]1C[C@H](O)[C@@H](CO)O1 [Cladribine] (1 nM)",
    "ASSAYED TARGET": "MDA-MB-453",
    "U": "%",
    "REPORTED RESULT": 113
  },
  {
    "MOLECULE": "N#CC[C@H](C1CCCC1)n1cc(-c2ncnc3[nH]ccc23)cn1 [Ruxolitinib] (1 nM)",
    "ASSAYED TARGET": "MDA-MB-453",
    "U": "%",
    "REPORTED RESULT": 94.4
  },
  {
    "MOLECULE": "CCN1CCN(c2ccc(Nc3cc(N(C)C(=O)Nc4c(Cl)c(OC)cc(OC)c4Cl)ncn3)cc2)CC1 [NVP-BGJ398] (0.1 nM)",
    "ASSAYED TARGET": "MDA-MB-453",
    "U": "%",
    "REPORTED RESULT": 84.1
  }
]

Recorded normalised response for S=c1[nH]cnc2nc[nH]c12 [Mercaptopurine] (1000 nM) , please?
98.6

Any idea what normalised response was measured for COc1cccc2c1C(=O)c1c(O)c3c(c(O)c1C2=O)C[C@@](O)(C(=O)CO)C[C@@H]3O[C@H]1C[C@H](N)[C@H](O)[C@H](C)O1 [Doxorubicin] (0.1 nM) ?
120

Reported normalised response for OC[C@H]1O[C@@H](n2cnc3c2N=CNC[C@H]3O)C[C@@H]1O [Pentostatin] (1 nM) : what is it?
107

Quick check: normalised response of Nc1ccn([C@@H]2O[C@H](CO)[C@@H](O)[C@@H]2O)c(=O)n1 [Cytarabine] (1 nM) ?
99.8

Consider the molecule shown here: CN(C)C/C=C/C(=O)Nc1cc2c(Nc3ccc(F)c(Cl)c3)ncnc2cc1O[C@H]1CCOC1 [Afatinib] (0.1 nM) What is its recorded normalised response?
111

* * *

System: HDQ-P1
ASSAY OVERVIEW: drug sensitivity score (DSS), CellTox Green (DSS (AUC-based score)); higher = stronger drug effect (viability inhibition or cytotoxicity); extreme values may be limits of the assay
CONDITION PARAMETERS: incubation time: 72 h
Known drug sensitivity score of a selection of compounds

Examples from the recorded data:
[
  {
    "COMPOUND": "CN1CCC(COc2cnc(-c3cccc(Cn4nc(-c5cccc(C#N)c5)ccc4=O)c3)nc2)CC1",
    "drug sensitivity score": 0
  },
  {
    "COMPOUND": "CN(C)C/C=C/C(=O)Nc1cc2c(Nc3ccc(F)c(Cl)c3)ncnc2cc1O[C@H]1CCOC1 [Afatinib]",
    "drug sensitivity score": 0
  }
]

Quick one: drug sensitivity score of CO[C@H]1C[C@@H]2CC[C@@H](C)[C@@](O)(O2)C(=O)C(=O)N2CCCC[C@H]2C(=O)O[C@H]([C@H](C)C[C@@H]2CC[C@@H](OC(=O)C(C)(CO)CO)[C@H](OC)C2)CC(=O)[C@H](C)/C=C(\C)[C@@H](O)[C@@H](OC)C(=O)[C@H](C)C[C@H](C)/C=C/C=C/C=C/1C [Temsirolimus] ?
0

Dear colleague, I am looking for the recorded drug sensitivity score of the following compound: CN1CC[C@H](c2c(O)cc(O)c3c(=O)cc(-c4ccccc4Cl)oc23)[C@H](O)C1 [Alvocidib]
7.43

What value of drug sensitivity score has been reported for the following compound? CC(=O)O[C@]1(C(C)=O)CC[C@H]2[C@@H]3C=C(C)C4=CC(=O)CC[C@]4(C)[C@H]3CC[C@@]21C [Megestrol acetate]
1.18

Requested read-out: drug sensitivity score. Entry: S=c1[nH]cnc2nc[nH]c12 [Mercaptopurine]
0

* * *

System: HCC1599
ASSAY OVERVIEW: normalised viability (% of control), CellTiter-Blue; higher = more viable cells (about 100 = DMSO control)
CONDITION PARAMETERS: 1000 nM; incubation time: 72 h
RECORDED ENDPOINT: normalised viability (%)
Your answer is read as %, so omit the unit and give the number.

[
  {
    "MOLECULE": "COc1cc(Nc2ncc3c(n2)-c2ccc(Cl)cc2C(c2c(F)cccc2OC)=NC3)ccc1C(=O)O [MLN8237]",
    "U": "%",
    "REPORTED RESULT": 87.7
  },
  {
    "MOLECULE": "C=CCNC1=C2C[C@@H](C)C[C@H](OC)[C@H](O)[C@@H](C)/C=C(\\C)[C@H](OC(N)=O)[C@@H](OC)/C=C\\C=C(/C)C(=O)NC(=CC1=O)C2=O [Tanespimycin]",
    "U": "%",
    "REPORTED RESULT": 42.7
  },
  {
    "MOLECULE": "CS(=O)(=O)c1ccc(C(=O)Nc2ccc(Cl)c(-c3ccccn3)c2)c(Cl)c1 [Vismodegib]",
    "U": "%",
    "REPORTED RESULT": 97.7
  }
]

Look at this molecule and give its reported normalised viability. COc1cccc2cc(-c3nc([C@H]4CC[C@H](C(=O)O)CC4)n4ncnc(N)c34)[nH]c12 [OSI-027]
72.4

* * *

The reader will find reported normalised response values listed item by item below.
Test system: MDA-MB-453
ASSAY OVERVIEW: normalised response (% of control), CellTox Green; higher = less cell death (100 = DMSO, 0 = benzethonium chloride kill control)
CONDITION PARAMETERS: incubation time: 72 h
Could you give me the number in %? Just the number is fine.

Which normalised response reading was recorded for the molecule N#CC[C@H](C1CCCC1)n1cc(-c2ncnc3[nH]ccc23)cn1 [Ruxolitinib] (1000 nM) ?
102

Can you share its normalised response? I mean this molecule: C=CCNC1=C2C[C@@H](C)C[C@H](OC)[C@H](O)[C@@H](C)/C=C(\C)[C@H](OC(N)=O)[C@@H](OC)/C=C\C=C(/C)C(=O)NC(=CC1=O)C2=O [Tanespimycin] (10000 nM)
87.4

// query normalised response value for entry C=CC[C@@H]1/C=C(\C)C[C@H](C)C[C@H](OC)[C@H]2O[C@@](O)(C(=O)C(=O)N3CCCC[C@H]3C(=O)O[C@H](/C(C)=C/[C@@H]3CC[C@@H](O)[C@H](OC)C3)[C@H](C)[C@@H](O)CC1=O)[C@H](C)C[C@@H]2OC [Tacrolimus] (100 nM)
97.8

Tell me the measured normalised response of CC(=O)O[C@]1(C(C)=O)CC[C@H]2[C@@H]3C=C(C)C4=CC(=O)CC[C@]4(C)[C@H]3CC[C@@]21C [Megestrol acetate] (10000 nM) , please.
99.8

Entry CC[C@]1(O)C[C@@H]2CN(CCc3c([nH]c4ccccc34)[C@@](C(=O)OC)(c3cc4c(cc3OC)N(C)[C@H]3[C@@](O)(C(=O)OC)[C@H](OC(C)=O)[C@]5(CC)C=CCN6CC[C@]43[C@@H]65)C2)C1 [Vinblastine] (1000 nM) has what normalised response?
96.5

Please look up its normalised response: C=CC[C@@H]1/C=C(\C)C[C@H](C)C[C@H](OC)[C@H]2O[C@@](O)(C(=O)C(=O)N3CCCC[C@H]3C(=O)O[C@H](/C(C)=C/[C@@H]3CC[C@@H](O)[C@H](OC)C3)[C@H](C)[C@@H](O)CC1=O)[C@H](C)C[C@@H]2OC [Tacrolimus] (1000 nM)
106
